# reported IC50; entries follow
System Under Test: AhR (Homo sapiens)
Method: In Vitro Assay 1: XRE-luciferase reporter assay, antagonism in human cell line (HepG2)
Assay Context: Assay 1: AhR-Luc Human Antagonism (IC50, nM), values marked *: kynurenine 50 μM, 6 hours
Assay Endpoint: IC50

| Compound | System Under Test | Result |
| --- | --- | --- |
| CC(=O)N1CCC(Nc2cc(-c3ccc(Cl)cc3)nc(-c3cccnc3)n2)CC1 | AhR (Homo sapiens) | 10 to 100 nM |
| ClC[C@@H]1CCN(c2cc(-c3ccc(Cl)cc3)nc(-c3cccnc3)n2)C1 | AhR (Homo sapiens) | 10 to 100 nM |
| O[C@H](CNc1cc(-c2ccc(Cl)cc2)nc(-c2cccnc2)n1)c1ccccc1 | AhR (Homo sapiens) | > 1000 nM |
| CC[C@@H](O)CNc1cc(-c2ccc(Cl)cc2)nc(-c2cccnc2)n1 | AhR (Homo sapiens) | 10 to 100 nM |
| Cn1cc(-c2nc(-c3ccc(Cl)cc3)cc(N3CCC[C@@H](CO)C3)n2)cn1 | AhR (Homo sapiens) | 100 to 1000 nM |
| FC(F)(F)C1CCCN1c1cc(-c2ccc(Cl)cc2)nc(-c2cccnc2)n1 (stereo not shown) | AhR (Homo sapiens) | > 1000 nM |
| Clc1ccc(-c2cc(NCCC3CCNCC3)nc(-c3cccnc3)n2)cc1 | AhR (Homo sapiens) | > 1000 nM |
| Clc1ccc(-c2cc(NC[C@H]3CCNC3)nc(-c3cccnc3)n2)cc1 | AhR (Homo sapiens) | > 1000 nM |
| CN(C)CCC1CCCN1c1cc(-c2ccc(Cl)cc2)nc(-c2cccnc2)n1 (stereo not shown) | AhR (Homo sapiens) | > 1000 nM |
| OCCN1CCN(c2cc(-c3ccc(Cl)cc3)nc(-c3cccnc3)n2)CC1 | AhR (Homo sapiens) | < 10 nM |
| O[C@H]1CCCN(c2cc(-c3ccc(Cl)cc3)nc(-c3cccnc3)n2)C1 | AhR (Homo sapiens) | 10 to 100 nM |
| OCC1CCN(c2cc(-c3ccc(Cl)cc3)nc(-c3cccnc3)n2)CC1 | AhR (Homo sapiens) | < 10 nM |
| CC(C)[C@@H](CO)Nc1cc(-c2ccc(Cl)cc2)nc(-c2cccnc2)n1 | AhR (Homo sapiens) | > 1000 nM |
| CN(c1cc(-c2ccc(Cl)cc2)nc(-c2cccnc2)n1)C1CCNCC1 | AhR (Homo sapiens) | > 1000 nM |
| COc1ccccc1N1CCN(c2cc(-c3ccc(Cl)cc3)nc(-c3cccnc3)n2)CC1 | AhR (Homo sapiens) | 10 to 100 nM |
| ClC[C@H]1CCN(c2cc(-c3ccc(Cl)cc3)nc(-c3cccnc3)n2)C1 | AhR (Homo sapiens) | 10 to 100 nM |
| Clc1ccc(-c2cc(NC3CCCNC3)nc(-c3cccnc3)n2)cc1 (stereo not shown) [Example 204] | AhR (Homo sapiens) | > 1000 nM |
| O[C@@H]1CCCC[C@H]1Nc1cc(-c2ccc(Cl)cc2)nc(-c2cccnc2)n1 [Example 69] | AhR (Homo sapiens) | 100 to 1000 nM |
| Clc1ccc(-c2cc(N3CCC(N4CCOCC4)CC3)nc(-c3cccnc3)n2)cc1 | AhR (Homo sapiens) | < 10 nM |
| Cn1cc(-c2nc(-c3ccc(Cl)cc3)cc(N3CCC[C@@H](O)C3)n2)cn1 | AhR (Homo sapiens) | 10 to 100 nM |
| Clc1ccc(-c2cc(NCCCN3CCCC3)nc(-c3cccnc3)n2)cc1 | AhR (Homo sapiens) | > 1000 nM |
| O[C@@H]1CCC[C@@H]1Nc1cc(-c2ccc(Cl)cc2)nc(-c2cccnc2)n1 | AhR (Homo sapiens) | > 1000 nM |
| CCCN1CCN(c2cc(-c3ccc(Cl)cc3)nc(-c3cccnc3)n2)CC1 | AhR (Homo sapiens) | < 10 nM |
| O[C@@H]1CCCC[C@H]1Nc1cc(-c2ccc(Cl)cc2)nc(-c2cccnc2)n1 (relative stereo) [Example 35] | AhR (Homo sapiens) | > 1000 nM |
| OC[C@H]1CCCN(c2cc(-c3ccc(Cl)cc3)nc(-c3cccnc3)n2)C1 | AhR (Homo sapiens) | 10 to 100 nM |
| O[C@@H]1CN(c2cc(-c3ccc(Cl)cc3)nc(-c3cccnc3)n2)C[C@H]1F | AhR (Homo sapiens) | < 10 nM |
| O[C@H]1CCC[C@H]1Nc1cc(-c2ccc(Cl)cc2)nc(-c2cccnc2)n1 | AhR (Homo sapiens) | 10 to 100 nM |
| FC1(F)CCN(c2cc(-c3ccc(Cl)cc3)nc(-c3cccnc3)n2)C1 | AhR (Homo sapiens) | 10 to 100 nM |
| Clc1ccc(-c2cc(NCC3CCN(Cc4ccccc4)CC3)nc(-c3cccnc3)n2)cc1 | AhR (Homo sapiens) | 100 to 1000 nM |
| CN1CCC(Nc2cc(-c3ccc(Cl)cc3)nc(-c3cccnc3)n2)CC1 | AhR (Homo sapiens) | > 1000 nM |
| CN1CCCC(Nc2cc(-c3ccc(Cl)cc3)nc(-c3cccnc3)n2)C1 (stereo not shown) | AhR (Homo sapiens) | 100 to 1000 nM |
| NCC1CCN(c2cc(-c3ccc(Cl)cc3)nc(-c3cccnc3)n2)CC1 | AhR (Homo sapiens) | 100 to 1000 nM |
| C[C@@H]1CN(c2cc(-c3ccc(Cl)cc3)nc(-c3cccnc3)n2)C[C@H](C)O1 | AhR (Homo sapiens) | > 1000 nM |
| NC1CCN(c2cc(-c3ccc(Cl)cc3)nc(-c3cccnc3)n2)CC1 | AhR (Homo sapiens) | 100 to 1000 nM |

---

# reported IC50; entries follow
System Under Test: AhR (Homo sapiens, UniProt P35869)
Sequence (P35869 11-848): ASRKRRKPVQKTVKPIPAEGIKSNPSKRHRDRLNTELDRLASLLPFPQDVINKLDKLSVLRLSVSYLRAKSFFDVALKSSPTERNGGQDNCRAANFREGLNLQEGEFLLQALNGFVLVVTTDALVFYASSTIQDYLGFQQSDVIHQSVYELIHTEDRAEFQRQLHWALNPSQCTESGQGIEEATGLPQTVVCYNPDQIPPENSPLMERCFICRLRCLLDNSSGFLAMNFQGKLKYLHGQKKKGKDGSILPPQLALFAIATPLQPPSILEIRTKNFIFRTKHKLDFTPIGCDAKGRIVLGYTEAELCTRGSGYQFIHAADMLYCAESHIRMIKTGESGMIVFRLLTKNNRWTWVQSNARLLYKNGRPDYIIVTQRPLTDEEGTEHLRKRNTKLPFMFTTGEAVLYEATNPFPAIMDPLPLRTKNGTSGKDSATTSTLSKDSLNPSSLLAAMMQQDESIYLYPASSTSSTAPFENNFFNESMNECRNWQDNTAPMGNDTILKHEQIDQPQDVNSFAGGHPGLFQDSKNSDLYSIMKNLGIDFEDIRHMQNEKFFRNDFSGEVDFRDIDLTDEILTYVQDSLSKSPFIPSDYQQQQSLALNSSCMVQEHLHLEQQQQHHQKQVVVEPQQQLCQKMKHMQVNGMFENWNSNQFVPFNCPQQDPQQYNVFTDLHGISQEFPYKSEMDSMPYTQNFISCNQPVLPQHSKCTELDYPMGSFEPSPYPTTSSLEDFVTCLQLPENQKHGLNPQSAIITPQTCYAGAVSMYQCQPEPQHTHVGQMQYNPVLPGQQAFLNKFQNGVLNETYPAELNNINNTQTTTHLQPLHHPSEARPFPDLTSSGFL
Method: In Vitro Assay 1: XRE-luciferase reporter assay, antagonism in human cell line (HepG2)
Assay Context: Assay 1: AhR-Luc Human Antagonism (IC50, nM), values marked *: kynurenine 50 μM, 6 hours

| Molecule | IC50 |
| --- | --- |
| C[C@@H](O)CNc1cc(-c2ccc(Cl)cc2)nc(-c2cccnc2)n1 | 100 to 1000 nM |
| Cn1cc(-c2nc(N[C@@H]3CC[C@H](O)C3)cc(-c3ccc(Cl)cc3)n2)cn1 | 100 to 1000 nM |
| O[C@H]1CC[C@H](Nc2cc(-c3ccc(Cl)cc3)nc(-c3cccnc3)n2)CC1 | 10 to 100 nM |
| Clc1ccc(-c2cc(N[C@@H]3CCNC3)nc(-c3cccnc3)n2)cc1 | > 1000 nM |
| C[C@@H]1CN(c2cc(-c3ccc(Cl)cc3)nc(-c3cccnc3)n2)C[C@H](C)N1 | > 1000 nM |
| N[C@@H]1CCCN(c2cc(-c3ccc(Cl)cc3)nc(-c3cccnc3)n2)C1 | > 1000 nM |
| CN1CCCCC1CCNc1cc(-c2ccc(Cl)cc2)nc(-c2cccnc2)n1 (centres unmarked) | > 1000 nM |
| O[C@@H]1CCC[C@H]1Nc1cc(-c2ccc(Cl)cc2)nc(-c2cccnc2)n1 [Example 29] | 10 to 100 nM |
